The measurements presented in this section are drawn from patent US20150322051A1.

# System: Puccinia triticina; synonym: Puccinia recondita f. sp. tritici (PUCCRT)
# METHOD DESCRIPTION: Wheat brown rust (PUCCRT) whole-plant fungicidal test
# Type: in vivo
# RECORDED CONDITIONS: topical, 72 h, low volume (track spray) application, 121.5 g/H, 3 Day Curative, read-out: Low Volume activity at 121.5 g/H PUCCRT 3DC (% disease control rating)
REPORTED METRIC: pest or weed control at 121.5 g/ha

- COc1ccnc(C(=O)N[C@H]2CCC[C@H](CC3CC3)[C@@H](Cc3ccccc3)[C@H](C)OC2=O)c1O [Compound 94]: < 70%
- COc1ccnc(C(=O)N[C@H]2CCC[C@H](Cc3ccc(Cl)cc3)[C@@H](CC(C)C)[C@H](C)OC2=O)c1OCOC(C)=O [Compound 12]: < 70%
- COc1ccnc(C(=O)N[C@H]2CCC[C@H](Cc3ccccc3)[C@@H](CCC(C)C)[C@H](C)OC2=O)c1OCOC(C)=O [Compound 47]: < 70%
- COc1ccnc(C(=O)N[C@H]2CCC[C@H](CC3CC3)[C@@H](Cc3ccccc3)[C@H](C)OC2=O)c1OC(C)=O [Compound 60]: > 70%
- CCCC[C@@H]1[C@@H](Cc2ccccc2)CCC[C@H](NC(=O)c2nccc(OC)c2OCOC(C)=O)C(=O)O[C@H]1C [Compound 2]: < 70%
- COc1ccnc(C(=O)N[C@H]2CCC[C@H](CCCc3ccccc3)[C@@H](Cc3ccccc3)[C@H](C)OC2=O)c1OCOC(C)=O [Compound 70]: < 70%
- COc1ccnc(C(=O)N[C@H]2CCC[C@H](CCCc3ccccc3)[C@@H](CC(C)C)[C@H](C)OC2=O)c1OC(C)=O [Compound 56]: < 70%
- COc1ccnc(C(=O)N[C@H]2CCC[C@H](Cc3ccccc3)[C@@H](Cc3ccccc3)[C@H](C)OC2=O)c1OC(C)=O [Compound 5]: > 70%
- COc1ccnc(C(=O)N[C@H]2CCC[C@H](Cc3ccccc3)[C@@H](CCC(C)C)[C@H](C)OC2=O)c1OC(C)=O [Compound 45]: < 70%
- CCC[C@H]1CCC[C@H](NC(=O)c2nccc(OC)c2OCOC(C)=O)C(=O)O[C@@H](C)[C@@H]1c1ccccc1 [Compound 54]: > 70%
- COc1ccnc(C(=O)N[C@H]2CCC[C@H](Cc3ccc(Cl)cc3)[C@@H](C3CCCC3)[C@H](C)OC2=O)c1OCOC(C)=O [Compound 29]: < 70%
- COc1ccnc(C(=O)N[C@H]2CCC[C@H](Cc3ccccc3)[C@@H](CCc3ccccc3)[C@H](C)OC2=O)c1OCOC(C)=O [Compound 15]: < 70%
- COc1ccnc(C(=O)N[C@H]2CCC[C@H](Cc3ccccc3)[C@@H](Cc3ccc(F)cc3)[C@H](C)OC2=O)c1OC(C)=O [Compound 62]: < 70%
